The values you see were collected from the RNAGym collection of RNA variant scans (doi:10.7554/elife.80360).

B1: HDV Ribozyme (parent)
chain: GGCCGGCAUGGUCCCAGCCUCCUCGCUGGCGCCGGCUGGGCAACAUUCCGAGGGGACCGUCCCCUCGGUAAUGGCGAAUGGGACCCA

Variants of: B1
Assay: self-cleavage, relative activity (ratio to wild type); higher = more cleavage; co-transcriptional
Kindly supply the reported self-cleavage values for the records listed here.
Numbers only.

Check out these entries, answers already filled in.
RECORD SEQUENCE: GGCCGGCAUGGUCCCAGCCUCCUCGCUGGCGCCGGCUGGGCAACAUUCCGAGGGGACCGUCCCCUCGGUAGUGGCCAAUGGGACCCA [A71G G76C]
DATA VALUE: 0.73
//
RECORD SEQUENCE: GGCCGGCAUGGUCCCAGCCUCCUCGCUGGCGCCGGCUGGGCAACAUUCCGAGUGGACCGUCACCUCGGUAAUGGCGAAUGGGACCCA [G53U C62A]
DATA VALUE: 0.901
//
RECORD SEQUENCE: GGCUGGCAUGGUCCCAGCCUCCUCGCUGGCGCCGGCUGGGCAACAUUUCGAGGGGACCGUCCCCUCGGUAAUGGCGAAUGGGACCCA [C4U C48U]
DATA VALUE: 0.931
//
RECORD SEQUENCE: GGCCGGCAUGGUCCCAGCCUCCUCGCUGGCGCCGGCUGGGCAAUAUUCCGAGGGGACCGUCCCCUGGGUAAUGGCGAAUGGGACCCA [C44U C66G]
DATA VALUE: 0.895
//
RECORD SEQUENCE: GGCAGGCCUGGUCCCAGCCUCCUCGCUGGCGCCGGCUGGGCAACAUUCCGAGGGGACCGUCCCCUCGGUAAUGGCGAAUGGGACCCA [C4A A8C]
DATA VALUE: 0

Working through the 7 variants below one at a time, give self-cleavage for each.
1. GGCCGGCAUGGUCCCAGCCUCCUCGCCGGCGCCGGCUGGGCAACAUUCCGAGGGGACCGUCCCCUCGGUAAUGACGAAUGGGACCCA [U27C G74A]
2. GGCCGGCAUGGUCCCAGCCUCCUCGCUGGCGCCGGCUGGGCAACAUCCCGAGGGGACCGUCCCCUCGGUAAUGGCGAAUGGGAGCCA [U47C C84G]
3. GGCCGGCAUGGUCCCAGCCACCUCGCUGGCGCCGGCUGGGCAACAUUCCGAGGGGACCGUCCCCUCGGUAACGGCGAAUGGGACCCA [U20A U72C]
4. GGCCGGCAUGGUCCCAGCCUCCUCGCGGGCGCCGGCUGGGCAACAUUCCGAGGGGACCGUCCCCUCGGAAAUGGCGAAUGGGACCCA [U27G U69A]
5. GGCCGGCAUGGUCCCAGCCUCCUCGCUGGCGCCGGCUGGGCAACCUUCCGAGGGGACCGUCCCCUCGGUAAUGGCGAAUCGGACCCA [A45C G80C]
6. GGCCGGCAUGGUCCCAGCCUCCUCGCUGUCGCCGGCUGGGCAACAUUCCGAGGGGACCGUCCCCUCGGUAUUGGCGAAUGGGACCCA [G29U A71U]
7. GGCCGUCAUGGUCCCAGCCUCCUCGCUGGCGGCGGCUGGGCAACAUUCCGAGGGGACCGUCCCCUCGGUAAUGGCGAAUGGGACCCA [G6U C32G]

1. 0.193
2. 0.604
3. 0.0723
4. 0.959
5. 0.0504
6. 0.0831
7. 0.798

For each of the items listed, what is its self-cleavage?
1. GGCCGGCAUGGUCCCAGCCUCCUCGCUGGCGCCGGCUGGGCAACAUUCCGAGGGGACCGUCCCCUCGGUUAUGGCGAAUGGGACUCA [A70U C85U]
2. GGCCGGCAUGGUCCCAGCCCCCUCGCUGGCUCCGGCUGGGCAACAUUCCGAGGGGACCGUCCCCUCGGUAAUGGCGAAUGGGACCCA [U20C G31U]
3. GGCCGGCAUGGUCCCAGCCUCCUCGCUGGCGCUGGCUGGGCAACAUUCCGAGGGGACCUUCCCCUCGGUAAUGGCGAAUGGGACCCA [C33U G59U]

1. 0.746
2. 0.141
3. 0.855
